This section presents molecules with their documented AUC(0-t) values.
# protocolText: Pharmacokinetic study in rats after oral administration of M. chamomilla extract (HPLC-UV of plasma)
# Assay type: in vivo, Male Sprague-Dawley rats
# condition: male, Sprague-Dawley, rat, oral M. chamomilla extract (quercetin 8.51 mg/kg, luteolin 56.49 mg/kg, apigenin 13.82 mg/kg), mean ± SD, n = 6, read-out: AUC0–12
quantity: AUC(0-t) (ng·h/mL)

| compoundStructure | observed |
| --- | --- |
| O=c1cc(-c2ccc(O)c(O)c2)oc2cc(O)cc(O)c12 | 16000 |
| O=c1c(O)c(-c2ccc(O)c(O)c2)oc2cc(O)cc(O)c12 | 1790 |
| O=c1cc(-c2ccc(O)cc2)oc2cc(O)cc(O)c12 | 2910 |

* * *

In this section we review reported Cmax values for a set of molecules.
# protocolText: Pharmacokinetic study in rats after oral administration of M. chamomilla extract (HPLC-UV of plasma)
# Format: in vivo, Male Sprague-Dawley rats
# condition: male, Sprague-Dawley, rat, oral M. chamomilla extract (quercetin 8.51 mg/kg, luteolin 56.49 mg/kg, apigenin 13.82 mg/kg), mean ± SD, n = 6, read-out: Cmax, maximum plasma concentration

| compoundStructure | Cmax |
| --- | --- |
| O=c1c(O)c(-c2ccc(O)c(O)c2)oc2cc(O)cc(O)c12 | 290 ng/mL |
| O=c1cc(-c2ccc(O)cc2)oc2cc(O)cc(O)c12 | 420 ng/mL |
| O=c1cc(-c2ccc(O)c(O)c2)oc2cc(O)cc(O)c12 | 3040 ng/mL |

* * *

# protocolText: Pharmacokinetic study in rats after oral administration of M. chamomilla extract (HPLC-UV of plasma)
# Type: in vivo, Male Sprague-Dawley rats
# condition: male, Sprague-Dawley, rat, oral M. chamomilla extract (quercetin 8.51 mg/kg, luteolin 56.49 mg/kg, apigenin 13.82 mg/kg), noncompartmental, mean ± SD, n = 6, read-out: Tmax, time to reach the maximum plasma concentration
Entries and their Tmax

| compound | Tmax |
| --- | --- |
| O=c1c(O)c(-c2ccc(O)c(O)c2)oc2cc(O)cc(O)c12 [Quercetin, quercetin] | ~47.4 min |
| O=c1cc(-c2ccc(O)c(O)c2)oc2cc(O)cc(O)c12 [Luteolin, luteolin] | ~25.2 min |
| O=c1cc(-c2ccc(O)cc2)oc2cc(O)cc(O)c12 [Apigenin, apigenin] | ~30.6 min |
